Source: the nanobody polyreactivity screen of Harvey et al. (2022)

experiment: yeast display, Sf9 membrane polyspecificity reagent, FACS + sequencing; frameworks hold sequencing errors

{"Input sequence": "QVQLVESGGGLVQAGGSLRLSCAASGRIFDYYAMGWYRQAPGKERELVASISRSGGSTYYADSVKGRFTISRDNAKNTVYLQMNSLKPEDTAVYYCAARRGYYYGRVGYWGQGTQVTVSS", "polyreactivity (PSR sort gate)": "high polyreactivity"}
{"Input sequence": "QVQLVESGGGLVQAGGSLRLSCAASGRIFKNYAMGWYRQAPGKERELVAAITWSGGRTYYADSVKGRFTISRDNAKNTVYLQMNSLKPEDTAVYYCATAARRGPNSIEPFGYGSWGQGTQVTVSS", "polyreactivity (PSR sort gate)": "high polyreactivity"}
